The reported numbers originate from paper PMC11269473.

Catalogue of IC50 values
# test-target: recombinant human MAO-B (Homo sapiens, UniProt P27338)
# Construct: purchased Sigma-Aldrich; host or cells: insect cells (microsomes)
# Sequence (P27338 whole entry): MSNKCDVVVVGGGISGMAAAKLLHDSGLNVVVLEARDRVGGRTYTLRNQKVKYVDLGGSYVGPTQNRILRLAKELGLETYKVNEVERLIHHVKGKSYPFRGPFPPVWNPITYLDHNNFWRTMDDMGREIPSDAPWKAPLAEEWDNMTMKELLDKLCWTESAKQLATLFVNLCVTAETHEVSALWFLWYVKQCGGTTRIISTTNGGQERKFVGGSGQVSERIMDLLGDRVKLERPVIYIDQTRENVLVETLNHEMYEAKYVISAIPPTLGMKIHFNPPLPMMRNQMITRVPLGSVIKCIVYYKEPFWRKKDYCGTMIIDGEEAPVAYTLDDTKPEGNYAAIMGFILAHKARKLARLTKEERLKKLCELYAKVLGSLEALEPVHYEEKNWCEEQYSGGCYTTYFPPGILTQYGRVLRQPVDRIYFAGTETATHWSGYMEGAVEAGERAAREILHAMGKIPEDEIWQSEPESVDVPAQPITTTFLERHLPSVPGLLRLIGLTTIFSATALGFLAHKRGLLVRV
# test-summary: MAO-B inhibition, IC50 determination with kynuramine as substrate (fluorescence of 4-hydroxyquinoline)
# Format: biochemical
# condition-description: recombinant human MAO-B, 50 µM kynuramine, mean ± SD of triplicate; NI = no inhibition observed at 100 µM
# Experimental: The MAO inhibition properties of the 2,1-benzisoxazole derivatives were investigated using the commercially available recombinant human MAO-A and MAO-B enzymes with kynuramine serving as substrate. MAO oxidizes kynuramine to yield 4-hydroxyquinoline, which was measured by fluorescence spectrophotometry. For the MAO inhibition studies, a Varian Cary Eclipse fluorescence spectrophotometer was employed. […] IC50 values for the inhibition of MAO were measured as described previously. […]
test-readout: IC50 (µM)

                                   compound  test_readout  result_number
0     C(#Cc1ccc2noc(-c3ccccc3)c2c1)c1ccccc1          IC50           7.92
1           N#Cc1ccc(-c2onc3ccc(Cl)cc23)cc1          IC50          0.098
2  Brc1ccc2noc(-c3ccccc3)c2c1 [Compound 3g, 5-Bromo-3-phenylbenzo[c]isoxazole]          IC50           5.79
3            Clc1ccc2noc(-c3ccc(Br)cc3)c2c1          IC50           1.18
4  c1ccc(-c2onc3ccc(Oc4ccc5noc(-c6ccccc6)c5c4)cc23)cc1 [Compound 5, 5,5'-Oxybis(3-phenylbenzo[c]isoxazole)]          IC50             10
5  Clc1cc2noc(-c3ccccc3)c2cc1Cl [Compound 3k, 6-Dichloro-3-phenylbenzo[c]isoxazole]          IC50           5.56
6            Clc1ccc(-c2onc3ccc(Cl)cc23)cc1          IC50           2.07

* * *

# test-target: recombinant human MAO-A (Homo sapiens, UniProt P21397)
# Construct: purchased Sigma-Aldrich; host or cells: insect cells (microsomes)
# Sequence (P21397 1-527): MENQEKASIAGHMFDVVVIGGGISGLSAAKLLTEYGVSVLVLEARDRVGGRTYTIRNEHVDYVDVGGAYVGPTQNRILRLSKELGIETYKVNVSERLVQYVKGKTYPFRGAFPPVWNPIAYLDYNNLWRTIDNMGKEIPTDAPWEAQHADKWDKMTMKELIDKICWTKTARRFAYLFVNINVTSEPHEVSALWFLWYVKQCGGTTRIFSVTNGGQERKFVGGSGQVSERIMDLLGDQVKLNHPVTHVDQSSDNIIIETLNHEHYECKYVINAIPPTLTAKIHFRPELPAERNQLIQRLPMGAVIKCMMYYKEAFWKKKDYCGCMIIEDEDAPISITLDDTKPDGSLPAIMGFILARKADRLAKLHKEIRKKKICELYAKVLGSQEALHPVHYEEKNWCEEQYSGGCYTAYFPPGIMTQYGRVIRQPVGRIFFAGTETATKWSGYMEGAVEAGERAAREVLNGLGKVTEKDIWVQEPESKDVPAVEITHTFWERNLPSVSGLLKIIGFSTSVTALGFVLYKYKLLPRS
# test-summary: MAO-A inhibition, IC50 determination with kynuramine as substrate (fluorescence of 4-hydroxyquinoline)
# Type: biochemical
# condition-description: 50 µM kynuramine, mean ± SD of triplicate, NI = no inhibition observed at 100 µM
test-readout: IC50 (µM)

>>> df
                                    compound  units  value_modifier  result_number
 0  Clc1cc2noc(-c3ccccc3)c2cc1Cl [Compound 3k, 6-Dichloro-3-phenylbenzo[c]isoxazole]     µM               >            100
 1  Clc1ccc(-c2onc3ccc(Cl)cc23)cc1 [Compound 3n]     µM               =           81.3
 2  COc1ccc(-c2onc3ccc(I)cc23)cc1 [Compound 3a]     µM               =           19.4
 3  Cc1nc(-c2cc3noc(-c4ccc(C#N)cc4)c3cc2Cl)no1 [Compound 7c]     µM               >            100
 4  Cc1ccc(-c2onc3ccc(I)cc23)cc1 [Compound 3i, 5-Iodo-3-(p-tolyl)benzo[c]isoxazole]     µM               =           43.9
 5  COc1ccc(-c2onc3ccc(Cl)cc23)cc1 [Compound 3o]     µM               =           8.49
 6  Brc1ccc2noc(-c3ccccc3)c2c1 [Compound 3g, 5-Bromo-3-phenylbenzo[c]isoxazole]     µM               =           19.5
 7  Cc1nc(-c2cc3noc(-c4ccccc4)c3cc2Cl)no1 [Compound 3e]     µM               =           8.95
 8  c1ccc(-c2onc3ccc(Oc4ccc5noc(-c6ccccc6)c5c4)cc23)cc1 [Compound 5, 5,5'-Oxybis(3-phenylbenzo[c]isoxazole)]     µM               =           3.29
 9  Clc1ccc2noc(-c3ccc(Br)cc3)c2c1 [Compound 3m]     µM               =           83.2
10  N#Cc1ccc(-c2onc3c(Cl)cc(Cl)cc23)cc1 [Compound 7a]     µM               =             19
11  Cc1ccc(-c2onc3ccc(Cl)cc23)cc1 [Compound 3c, 5-Chloro-3-(p-tolyl)benzo[c]isoxazole]     µM               =           8.76
12  N#Cc1ccc(-c2onc3ccc(Cl)cc23)cc1 [Compound 7b]     µM               =             61
13  Clc1ccc(-c2onc3ccc(I)cc23)cc1 [Compound 3b]     µM               =           77.7
14  C(#Cc1ccc2noc(-c3ccccc3)c2c1)c1ccccc1 [Compound 3d]     µM               =           71.6
15  c1ccc(-c2onc3ccc(C4OCCO4)cc23)cc1 [Compound 3l]     µM               =           5.35
16  Clc1ccc2noc(-c3ccccc3)c2c1 [Compound 3j, 5-Chloro-3-phenylbenzo[c]isoxazole]     µM               =           10.6
17  Ic1ccc2noc(-c3ccccc3)c2c1 [Compound 3h, 5-Iodo-3-phenylbenzo[c]isoxazole]     µM               =           17.7
18  CC1(c2ccc3noc(-c4cccc(Cl)c4)c3c2)OCCO1 [Compound 3f]     µM               >            100
